test.system: Human CB1R (Cannabinoid receptor 1) (Homo sapiens)
method.notes: CB-1 in vitro cAMP (HTRF) assay
Format: cell-based
setup.conditions: HEK cells, cAMP HTRF, 250 nM forskolin; mean where tested more than once; read-out: CB1 HEK_cAMP EC50
Excerpt: CB1 and CB2 receptors are Gi-coupled GPCR. Activation of CB1 and CB2 receptors results in a decrease in cAMP production. An inverse agonist of the CB1 or CB2 receptor results in the opposite effect, an increase of cAMP production. The principle of this assay is based on HTRF® technology (Homogeneous Time-Resolved Fluorescence). […] The tracer binding is quantified by a Mab anti-cAMP labeled with Eu3+TBP-NHS Cryptate (supplied as part of the assay kit). […]
pEC50: −log10 of the molar value.
attribute.measured: pEC50

Below, each entry is followed by its recorded pEC50 result.
>  <compound>
O=C(O)COCC(c1ccc(Cl)cc1)(c1ccc(Cl)cc1)c1ccc2nc(C3CC3)n(C3CCN(S(=O)(=O)C(F)(F)F)CC3)c2c1

>  <attribute.measured>
pEC50

>  <recorded.number>
5.41

$$$$
>  <compound>
NC(=O)c1cccc(CN2CCC(n3c(C4CC4)nc4ccc(C(c5ccc(Cl)cc5)c5ccc(Cl)cc5)cc43)CC2)c1

>  <attribute.measured>
pEC50

>  <recorded.number>
8.48

$$$$
>  <compound>
O=S(=O)(c1ccccc1C(F)(F)F)N1CCC(n2c(C3CC3)nc3ccc(C(c4ccc(Cl)cc4)c4ccc(Cl)cc4)cc32)CC1

>  <attribute.measured>
pEC50

>  <recorded.number>
7.97

$$$$
>  <compound>
Cc1ccc(C(c2ccc(Cl)cc2)c2ccc3nc(C4CC4)n(C4CCN(Cc5cccc(C(=O)O)c5)CC4)c3c2)cc1 (stereo not shown)

>  <attribute.measured>
pEC50

>  <recorded.number>
7.71

$$$$
>  <compound>
NC(=O)c1cccc(N2CCC(n3c(C4CC4)nc4ccc(C(c5ccc(Cl)cc5)c5ccc(Cl)cc5)cc43)CC2)c1

>  <attribute.measured>
pEC50

>  <recorded.number>
8.21

$$$$
>  <compound>
O=C(OC1CCCC1)N1CCC(n2c(C3CC3)nc3ccc(C(c4ccc(Cl)cc4)c4ccc(Cl)cc4)cc32)CC1

>  <attribute.measured>
pEC50

>  <recorded.number>
7.56

$$$$

(I) O=C(O)c1ccc(C(=O)N2CCC(n3c(C4CC4)nc4ccc(C(c5ccc(Cl)cc5)c5ccc(Cl)cc5)cc43)CC2)cn1
(II) NC(=O)c1ccc(C(=O)N2CCC(n3c(C4CC4)nc4ccc(C(c5ccc(Cl)cc5)c5ccc(Cl)cc5)cc43)CC2)cn1
## Task Please tell me which of the two, I or II , has the higher reported pEC50 value. To answer, give the label that identifies your chosen option.
## Result II

(P) O=C(O)c1ccc(S(=O)(=O)N2CCC(n3c(C4CC4)nc4ccc(C(CO)(c5ccc(Cl)cc5)c5ccc(Cl)cc5)cc43)CC2)cc1Cl
(Q) O=S(=O)(N1CCC(n2c(C3CCCO3)nc3ccc(C(c4ccc(Cl)cc4)c4ccc(Cl)cc4)cc32)CC1)C(F)(F)F (stereo not shown)
## Task Lab note: check whether P or Q shows the higher recorded pEC50. Could you answer with the label of the item you picked?
## Result Q

(P) NCCS(=O)(=O)N1CCC(n2c(C3CC3)nc3ccc(C(c4ccc(Cl)cc4)c4ccc(Cl)cc4)cc32)CC1
(Q) O=S(=O)(N1CCC(Cn2c(C3CC3)nc3ccc(C(O)(c4ccc(Cl)cc4)c4ccc(Cl)cc4)cc32)CC1)C(F)(F)F
## Task Endpoint returns the identifier whose pEC50 is numerically larger, either P or Q . Refer to your chosen item by its label in the answer.
## Result Q
(Q: 8.34, P: 6.35)

###

test.system: UniProt P21554
method.notes: CB-1 in vitro cAMP (HTRF) assay
Assay type: cell-based
setup.conditions: HEK cells, cAMP HTRF, 250 nM forskolin; mean where tested more than once; read-out: CB1 HEK_cAMP EC50
attribute.measured: EC50 (nM)

Sample records with EC50:
>  <compound>
O=S(=O)(N1CCC(n2c(-c3ccncc3)nc3ccc(C(c4ccc(Cl)cc4)c4nccs4)cc32)CC1)C(F)(F)F (stereo not shown)

>  <value.unit>
nM

>  <EC50>
242

$$$$
>  <compound>
CCc1nc2ccc(C(C(=O)O)(c3ccc(Cl)cc3)c3ccc(Cl)cc3)cc2n1C1CCN(S(=O)(=O)C(F)(F)F)CC1

>  <value.unit>
nM

>  <EC50>
18.4

$$$$

(P) Clc1ccc(Cn2c(-c3ccc(Cl)cc3)nc3ccc(C(c4ccc(Cl)cc4)c4nccs4)cc32)cc1 (stereo not shown)
(Q) CC(c1ccc(Cl)cc1)n1c(C2CC2)nc2ccc(C(c3ccc(Cl)cc3)c3nccs3)cc21 (stereo not shown)
## Task API: POST /compare with P and Q ; response names the item with higher EC50. // output: label of the selected item
## Result Q
(Q: 6020 nM, P: 212 nM)

###

test.system: Human CB1R (Cannabinoid receptor 1) (Homo sapiens)
method.notes: CB-1 in vitro cAMP (HTRF) assay
Type: cell-based
setup.conditions: HEK cells, cAMP HTRF, 250 nM forskolin; mean where tested more than once; read-out: CB1 HEK_cAMP EC50
attribute.measured: EC50 (nM)

Worked examples follow.
>  <compound>
O=C(c1cn[nH]n1)N1CCC(n2c(C3CC3)nc3ccc(C(c4ccc(Cl)cc4)c4ccc(Cl)cc4)cc32)CC1

>  <EC50, nM>
173

$$$$
>  <compound>
COc1ccc(Cn2c(C3CC3)nc3ccc(C(c4ccc(Cl)cc4)c4ccc(Cl)cc4)cc32)cc1

>  <EC50, nM>
96.7

$$$$
>  <compound>
O=C(O)c1cncc(CN2CCC(n3c(C4CC4)nc4ccc(C(c5ccc(Cl)cc5)c5ccc(Cl)cc5)cc43)CC2)c1

>  <EC50, nM>
13.4

$$$$
>  <compound>
Clc1ccc(C(c2ccc3nc(C4CC4)n(Cc4ccccn4)c3c2)c2nccs2)cc1 (stereo not shown)

>  <EC50, nM>
569

$$$$
>  <compound>
COc1cccc(Cn2c(C3CC3)nc3ccc(C(c4ccc(Cl)cc4)c4ccc(Cl)cc4)cc32)c1

>  <EC50, nM>
33.7

$$$$

(A) O=S(=O)(c1cccc(O)c1)N1CCC(n2c(C3CC3)nc3ccc(C(c4ccc(Cl)cc4)c4ccc(Cl)cc4)cc32)CC1
(B) CCc1nc2ccc(C(c3ccc(Cl)cc3)c3nccs3)cc2n1CC1CCN(S(=O)(=O)C(F)(F)F)CC1 (stereo not shown)
## Task Just curious, which one has the larger EC50 reading, A or B ? Please respond with the label that marks your chosen entry.
## Result B

###

test.system: Human CB2R (Cannabinoid receptor 2) (Homo sapiens, UniProt P34972)
Sequence (P34972 whole entry): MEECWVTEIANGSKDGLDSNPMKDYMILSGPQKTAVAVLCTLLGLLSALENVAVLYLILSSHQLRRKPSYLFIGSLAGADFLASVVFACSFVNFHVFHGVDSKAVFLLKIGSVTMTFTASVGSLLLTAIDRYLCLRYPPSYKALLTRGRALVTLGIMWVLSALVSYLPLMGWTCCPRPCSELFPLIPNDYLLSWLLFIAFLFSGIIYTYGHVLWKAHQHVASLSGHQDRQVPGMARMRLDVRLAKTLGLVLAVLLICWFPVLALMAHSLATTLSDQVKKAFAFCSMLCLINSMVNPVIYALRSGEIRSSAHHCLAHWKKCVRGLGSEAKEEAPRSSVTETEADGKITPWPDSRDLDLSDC
method.notes: CB-2 in vitro cAMP (HTRF) assay
setup.conditions: HEK cells, cAMP HTRF, 250 nM forskolin; mean where tested more than once; read-out: CB2 HEK_cAMP EC50
attribute.measured: EC50

Worked cases, EC50 given:
>  <compound>
COC(=O)CCNC(=O)c1cccc(S(=O)(=O)N2CCC(n3c(C4CC4)nc4ccc(C(c5ccc(Cl)cc5)c5ccc(Cl)cc5)cc43)CC2)c1

>  <result>
> 10 µM

$$$$
>  <compound>
CC(C)c1nc2ccc(C(c3ccc(Cl)cc3)c3nccs3)cc2n1-c1cccc(Cl)c1 (stereo not shown)

>  <result>
> 10 µM

$$$$
>  <compound>
NC(=O)COc1cccc(-n2c(C3CC3)nc3ccc(C(c4ccc(Cl)cc4)c4ccc(Cl)cc4)cc32)c1

>  <result>
> 10 µM

$$$$

Documented EC50 of `NC(=O)[C@H]1CC[C@H](n2c(C3CC3)nc3ccc(C(c4ccc(Cl)cc4)c4ccc(Cl)cc4)cc32)CC1` : > 10 µM

###

test.system: Human CB1R (Cannabinoid receptor 1) (Homo sapiens, UniProt P21554)
Sequence (P21554 whole entry): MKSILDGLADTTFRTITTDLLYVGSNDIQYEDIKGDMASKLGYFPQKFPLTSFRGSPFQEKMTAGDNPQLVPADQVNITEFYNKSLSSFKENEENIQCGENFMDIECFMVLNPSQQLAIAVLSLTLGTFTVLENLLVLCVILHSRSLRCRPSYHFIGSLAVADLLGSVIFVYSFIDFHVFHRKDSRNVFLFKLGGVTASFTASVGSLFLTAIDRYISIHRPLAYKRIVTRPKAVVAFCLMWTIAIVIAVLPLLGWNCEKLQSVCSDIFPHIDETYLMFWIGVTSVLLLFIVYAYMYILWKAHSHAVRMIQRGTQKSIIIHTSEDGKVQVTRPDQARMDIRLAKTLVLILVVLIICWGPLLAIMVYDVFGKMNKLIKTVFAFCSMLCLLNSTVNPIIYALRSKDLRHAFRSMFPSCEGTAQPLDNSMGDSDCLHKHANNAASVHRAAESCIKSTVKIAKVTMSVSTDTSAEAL
method.notes: CB-1 in vitro cAMP (HTRF) assay
Format: cell-based
setup.conditions: HEK cells, cAMP HTRF, 250 nM forskolin; mean where tested more than once; read-out: CB1 HEK_cAMP EC50
pEC50: −log10 of the molar value.
attribute.measured: pEC50

Here are 5 compounds together with their reported answers.
>  <compound>
O=S(=O)(N1CCC(Cn2c(C3CCC3)nc3ccc(C(c4ccc(Cl)cc4)c4ccc(Cl)cc4)cc32)CC1)C(F)(F)F

>  <pEC50>
8.64

$$$$
>  <compound>
O=C(O)c1cc(S(=O)(=O)N2CCC(n3c(C4CC4)nc4ccc(C(c5ccc(Cl)cc5)c5ccc(Cl)cc5)cc43)CC2)ccc1F

>  <pEC50>
7.78

$$$$
>  <compound>
CCOC(=O)c1nc2ccc(C(c3ccc(Cl)cc3)c3nccs3)cc2n1C1CCN(S(=O)(=O)C(F)(F)F)CC1 (centres unmarked)

>  <pEC50>
6.26

$$$$
>  <compound>
CC(C)(C)OC(=O)N1CCC(n2c(C3CC3)nc3ccc(C(O)(c4ccc(Cl)cc4)c4ccc(Cl)cc4)cc32)CC1

>  <pEC50>
7.51

$$$$
>  <compound>
Cc1nc2ccc(C(c3ccc(Cl)cc3)c3nccs3)cc2n1C1CCN(S(=O)(=O)C(F)(F)F)CC1 (centres unmarked)

>  <pEC50>
7.66

$$$$

(1) O=C(O)c1cc(S(=O)(=O)N2CCC(n3c(C4CC4)nc4ccc(C(c5ccc(Cl)cc5)c5ccc(Cl)cc5)cc43)CC2)ccc1Cl
(2) CCCc1nc2ccc(C(c3ccc(Cl)cc3)c3nccs3)cc2n1C1CCN(S(=O)(=O)C(F)(F)F)CC1 (centres unmarked)
(3) NC(=O)c1ccc(C(=O)N2CCC(n3c(C4CC4)nc4ccc(C(c5ccc(Cl)cc5)c5ccc(Cl)cc5)cc43)CC2)cc1
## Task Hello, I need these entries ordered by pEC50, highest reading first. Thanks! // format: requested-order list of labels
## Result 1, 3, 2

(P) Cc1cc(S(=O)(=O)N2CCC(n3c(C4CC4)nc4ccc(C(c5ccc(Cl)cc5)c5ccc(Cl)cc5)cc43)CC2)ccc1C(=O)O
(Q) O=C(O)c1ccc(-c2cccc(CCn3c(C4CC4)nc4ccc(C(c5ccc(Cl)cc5)c5ccc(Cl)cc5)cc43)c2)s1
## Task Quick check, higher pEC50 between P and Q ? Label of pick, please.
## Result P
(P: 8.19, Q: 7.55)

(1) O=C(O)c1cccc(CN2CCC(Cn3c(C4CC4)nc4ccc(C(c5ccc(Cl)cc5)c5ccc(Cl)cc5)cc43)CC2)c1
(2) O=C(O)c1cccc(OCCn2c(C3CC3)nc3ccc(C(c4ccc(Cl)cc4)c4ccc(Cl)cc4)cc32)c1
(3) CCOC(=O)N1CCC(n2c(CC)nc3ccc(C(c4ccc(Cl)cc4)c4ccc(Cl)cc4)cc32)CC1
## Task Ordering criterion: pEC50; begin with the maximum. Give your ranking as a list of the labels in the requested order.
## Result 3, 2, 1
(3: 7.83, 2: 6.74, 1: 6.49)
